The following sequences are shown together with reported self-aminoacylation values.
- Test system: biotinyl-Phe-oxazolone
- PROTOCOL DESCRIPTION: self-aminoacylation, catalytic enhancement (BFO) (fold over background); higher = more active; k-Seq, kA / k0A0; sequences stand for … in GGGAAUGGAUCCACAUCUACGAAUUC…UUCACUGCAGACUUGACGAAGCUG
This sample holds only a part of the variants without activity.
// return a plain number; no unit text

A selection of reference data follows.
ITEM SEQUENCE	self-aminoacylation
AAGUUUGCUAGCAGUCGCAAG [Fam3.1 aminoacylation ribozyme variant]	1.85
CCACUCUUCAAUCAAUCGGUC [Fam1B.1 aminoacylation ribozyme variant]	33.5
CCACACUUUAAGCAAUCGGUA [Fam1B.1 aminoacylation ribozyme variant]	0.889
AUUACCCUGAUCGUCGAGUGA [Fam2.1 aminoacylation ribozyme variant]	0.434

Incoming: Recorded self-aminoacylation for CCACACUUAUAGCAAUCGGUC [Fam1B.1 aminoacylation ribozyme variant] , please?
Outgoing: 0.926

Incoming: Recorded self-aminoacylation for AUUACCCUGGUCUCCGAGUGA [Fam2.1 aminoacylation ribozyme variant] , please?
Outgoing: 64.4

Incoming: Recorded self-aminoacylation for CCUCACUUCAAGCAAUUGGUC [Fam1B.1 aminoacylation ribozyme variant] , please?
Outgoing: 1.67

Incoming: Recorded self-aminoacylation for AGGUUUGCUACUAGUCGCAAG [Fam3.1 aminoacylation ribozyme variant] , please?
Outgoing: 2.49

Incoming: Recorded self-aminoacylation for CUUACCCUGGUCAUAGAGUGA [Fam2.1 aminoacylation ribozyme variant] , please?
Outgoing: 24.2

Incoming: Recorded self-aminoacylation for AUUACCCAGGUCAUCGAGUGC [Fam2.1 aminoacylation ribozyme variant] , please?
Outgoing: 0.417

Incoming: Recorded self-aminoacylation for CCAGACUUCAAGCAAUCAGUC [Fam1B.1 aminoacylation ribozyme variant] , please?
Outgoing: 12.6

Incoming: Recorded self-aminoacylation for AAGUUUGCUAUUAGUCGCUAG [Fam3.1 aminoacylation ribozyme variant] , please?
Outgoing: 1.16

Incoming: Recorded self-aminoacylation for AUUCACCUCGGACAUCGGGUG [Fam2.2 aminoacylation ribozyme variant] , please?
Outgoing: 40.1

Incoming: Recorded self-aminoacylation for CCACACUUGAAGCUAUCGGUC [Fam1B.1 aminoacylation ribozyme variant] , please?
Outgoing: 0.482

---

- System: biotinyl-Leu-oxazolone
- PROTOCOL DESCRIPTION: self-aminoacylation, catalytic enhancement (BLO) (fold over background); higher = more active; k-Seq, kA / k0A0; sequences stand for … in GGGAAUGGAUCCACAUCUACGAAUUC…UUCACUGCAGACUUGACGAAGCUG
This sample holds only a part of the variants without activity.
Grouping key: self-aminoacylation. Bins: Low (below 0.9), Medium (0.9 to below 2), High (2 or more)

ITEM SEQUENCE	SUBJECT OF TEST	CLASSIFICATION
AAGUUUGCUAAUAGUUGCAAC [Fam3.1 aminoacylation ribozyme variant]	biotinyl-Leu-oxazolone	Low
CUACUUCACACAAUCGGUCUA [Fam1A.1 aminoacylation ribozyme variant]	biotinyl-Leu-oxazolone	Low
AUUACCCGGGUCAUCGAAUGA [Fam2.1 aminoacylation ribozyme variant]	biotinyl-Leu-oxazolone	Medium
AUUGACCGAGGUCAUCGGGUG [Fam2.2 aminoacylation ribozyme variant]	biotinyl-Leu-oxazolone	High
AAGUUUGCUAAUAGCAGCAAG [Fam3.1 aminoacylation ribozyme variant]	biotinyl-Leu-oxazolone	Low
AUUACCCUGGUCGUGGAGUGA [Fam2.1 aminoacylation ribozyme variant]	biotinyl-Leu-oxazolone	High
CUACUUCAAACAAUCGUUCGG [Fam1A.1 aminoacylation ribozyme variant]	biotinyl-Leu-oxazolone	Low
CCUCACAUCAAGCAAUCGGUC [Fam1B.1 aminoacylation ribozyme variant]	biotinyl-Leu-oxazolone	Low

Incoming: Sort into band: CCACACUUAAAUCAAUCGGUC [Fam1B.1 aminoacylation ribozyme variant]
Outgoing: Low

Incoming: Sort into band: AUUACCCUGGUAAUCGAGUGU [Fam2.1 aminoacylation ribozyme variant]
Outgoing: High

---

- Test system: biotinyl-Phe-oxazolone
- PROTOCOL DESCRIPTION: self-aminoacylation, catalytic enhancement (BFO) (fold over background); higher = more active; k-Seq, kA / k0A0; sequences stand for … in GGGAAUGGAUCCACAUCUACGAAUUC…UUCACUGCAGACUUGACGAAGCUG
Variants at the floor of the assay were thinned out.
TEST READOUT: self-aminoacylation
// return a plain number; no unit text

A selection of reference data follows.
ITEM SEQUENCE	SUBJECT OF TEST	ASSAY RESULT
AUUCACCUAGGUCAUAGAGUG [Fam2.2 aminoacylation ribozyme variant]	biotinyl-Phe-oxazolone	10.1
CUCGUUCAAACAAUCGGUCUG [Fam1A.1 aminoacylation ribozyme variant]	biotinyl-Phe-oxazolone	10.2
AUUCCCCUAGGUGAUCGGGUG [Fam2.2 aminoacylation ribozyme variant]	biotinyl-Phe-oxazolone	47.7
AUUACCCUAGUCAUAGAGUGA [Fam2.1 aminoacylation ribozyme variant]	biotinyl-Phe-oxazolone	32.7
AAUUUUGCUAAUAGUCGCAAA [Fam3.1 aminoacylation ribozyme variant]	biotinyl-Phe-oxazolone	2.06

Next up:
Incoming: Recorded self-aminoacylation for AGUAUCCUGGUCAUCGAGUGA [Fam2.1 aminoacylation ribozyme variant] , please?
Outgoing: 20.7

---

The following sequences are shown together with reported self-aminoacylation values.
- Test system: biotinyl-Val-oxazolone
- PROTOCOL DESCRIPTION: self-aminoacylation, catalytic enhancement (BVO) (fold over background); higher = more active; k-Seq, kA / k0A0; sequences stand for … in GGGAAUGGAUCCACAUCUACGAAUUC…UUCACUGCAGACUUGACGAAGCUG
This sample holds only a part of the variants without activity.

ITEM SEQUENCE	self-aminoacylation
AUUCAACUAGGUCAGCGGGUG [Fam2.2 aminoacylation ribozyme variant]	3.29
CUACUUCAAACAAUCGAUUUG [Fam1A.1 aminoacylation ribozyme variant]	0.657
AUUACCCUGGUCAACGAGUGC [Fam2.1 aminoacylation ribozyme variant]	0.903
AGUCACCUAGGUCAUUGGGUG [Fam2.2 aminoacylation ribozyme variant]	3.26
CCAGACUUCAGGCAAUCGGUC [Fam1B.1 aminoacylation ribozyme variant]	1.64

Incoming: Recorded self-aminoacylation for AUCACCCUUGUCAUCGAGUGA [Fam2.1 aminoacylation ribozyme variant] , please?
Outgoing: 4.91

Incoming: Recorded self-aminoacylation for AUCCACGUAGGUCAUCGGGUG [Fam2.2 aminoacylation ribozyme variant] , please?
Outgoing: 4.96

Incoming: Recorded self-aminoacylation for CUGAUUCAAACAAUCGGUCUG [Fam1A.1 aminoacylation ribozyme variant] , please?
Outgoing: 0.828

Incoming: Recorded self-aminoacylation for CCACUUCAAACAAUCGGUCAG [Fam1A.1 aminoacylation ribozyme variant] , please?
Outgoing: 1.04

Incoming: Recorded self-aminoacylation for AUUACCCUGGUCAUCGAGUUU [Fam2.1 aminoacylation ribozyme variant] , please?
Outgoing: 4.61

Incoming: Recorded self-aminoacylation for AUUACCCUGUUCGUCGAGUGA [Fam2.1 aminoacylation ribozyme variant] , please?
Outgoing: 1.2

Incoming: Recorded self-aminoacylation for ACUCACCAAGGUCAUCGGGUG [Fam2.2 aminoacylation ribozyme variant] , please?
Outgoing: 4.52

Incoming: Recorded self-aminoacylation for AUUCAUCUAGGUAAUCGGGUG [Fam2.2 aminoacylation ribozyme variant] , please?
Outgoing: 1.73

Incoming: Recorded self-aminoacylation for AUCCACCUAGUUCAUCGGGUG [Fam2.2 aminoacylation ribozyme variant] , please?
Outgoing: 3.24

Incoming: Recorded self-aminoacylation for AUUCACCUACGUCAUGGGGUG [Fam2.2 aminoacylation ribozyme variant] , please?
Outgoing: 2.01

---

- System: biotinyl-Met-oxazolone
- PROTOCOL DESCRIPTION: self-aminoacylation, catalytic enhancement (BMO) (fold over background); higher = more active; k-Seq, kA / k0A0; sequences stand for … in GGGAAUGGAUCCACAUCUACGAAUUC…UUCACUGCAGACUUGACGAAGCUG
This sample holds only a part of the variants without activity.
Grouping key: self-aminoacylation. Bins: A (below 2), B (2 to below 8), C (8 or more)

Would you please look over these solved cases?
ITEM SEQUENCE	CLASSIFICATION
AUUCACCUAGAUCAUCGGGUA [Fam2.2 aminoacylation ribozyme variant]	B
ACACACUUCAAGCAAUCGGUU [Fam1B.1 aminoacylation ribozyme variant]	B
AUUACACUGGUCAUCGGGUGA [Fam2.1 aminoacylation ribozyme variant]	C

Incoming: Sort into band: AUUACCCUGGCCCUCGAGUGA [Fam2.1 aminoacylation ribozyme variant]
Outgoing: B

Incoming: Sort into band: AUUACCCCGGUCAUCGCGUGA [Fam2.1 aminoacylation ribozyme variant]
Outgoing: C

Incoming: Sort into band: AUUACCCUGUUCAUCGGGUGA [Fam2.1 aminoacylation ribozyme variant]
Outgoing: C

Incoming: Sort into band: AUCCACCGAGGUCAUCGGGUG [Fam2.2 aminoacylation ribozyme variant]
Outgoing: C

Incoming: Sort into band: CCACACUUCAAGAAAUCGGUG [Fam1B.1 aminoacylation ribozyme variant]
Outgoing: B

Incoming: Sort into band: CCACACUUCAAGCAAUGGGUU [Fam1B.1 aminoacylation ribozyme variant]
Outgoing: A

Incoming: Sort into band: CCACCCUUCAAGCACUCGGUC [Fam1B.1 aminoacylation ribozyme variant]
Outgoing: A

Incoming: Sort into band: AUUACCCUGGGCAUCAAGUGA [Fam2.1 aminoacylation ribozyme variant]
Outgoing: A

Incoming: Sort into band: AUUCAGCUAGGUCAUCGGGGG [Fam2.2 aminoacylation ribozyme variant]
Outgoing: B
